Listed next: entries and their corresponding pIC50.
target: recombinant eIF4E (Homo sapiens (Human), UniProt P06730); assay: Fluorescence polarization competition assay for eIF4E binding potency; conditions: inhibition of eIF4E/EDA-m7GDP-ATTO-550 binding by 50%; Table 4B calculated values; read-out: IC50
Sequence (P06730 whole entry): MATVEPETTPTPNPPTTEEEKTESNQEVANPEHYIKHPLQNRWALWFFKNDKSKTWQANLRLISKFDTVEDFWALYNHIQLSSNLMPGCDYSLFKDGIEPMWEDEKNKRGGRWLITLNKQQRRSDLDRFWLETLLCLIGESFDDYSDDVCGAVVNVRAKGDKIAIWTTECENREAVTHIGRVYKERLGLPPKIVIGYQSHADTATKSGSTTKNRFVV
pIC50: −log10 of the molar value.
Measured Property: pIC50

INSERT INTO assay_data (chemical_string, measured_property, reported_result) VALUES
  ('Cc1nc2cc(C(F)(F)F)cc(C#N)c2c(=O)n1CCOc1ccc(Cl)cc1-c1nccc2c(C(=O)O)csc12', 'pIC50', 6.83),
  ('Cc1cc(-c2cc(Cl)ccc2OCCn2c(C)nc3cc(C(F)(F)F)c(C(=O)N(C)C)nc3c2=O)c2scc(C(=O)O)c2n1', 'pIC50', 8.51),
  ('N#Cc1cccc2nc(C(F)F)n(CCOc3ccc(Cl)cc3-c3nccc4c(C(=O)O)csc34)c(=O)c12', 'pIC50', 5.80),
  ('Cc1cc(-c2cc(Cl)ccc2OCCn2c(C)nc3cc(C(F)(F)F)c(-c4cnc(C)nc4C)c(C#N)c3c2=O)c2scc(C(=O)O)c2n1', 'pIC50', 8.21);

---

target: recombinant eIF4E (Homo sapiens (Human), UniProt P06730); assay: Fluorescence polarization competition assay for eIF4E binding potency; settings: inhibition of eIF4E/EDA-m7GDP-ATTO-550 binding by 50%; Table 4B calculated values; read-out: IC50
Reported IC50 values are given for each entry in this list.
Measured Property: IC50 (nM)

INSERT INTO assay_data (chemical_string, system_name, reported_result) VALUES
  ('Cc1nc2cnc(OC3CCNCC3)c(C#N)c2c(=O)n1CCOc1ccc(Cl)cc1-c1ccnc2c(C(=O)O)csc12', 'recombinant eIF4E (Homo sapiens (Human), UniProt P06730)', 28.2),
  ('Cc1cnc(C)c(-c2c(C(F)(F)F)cc3nc(C)n(CCOc4ccc(Cl)cc4-c4cc(C)nc5c(C(=O)O)csc45)c(=O)c3c2C#N)c1', 'recombinant eIF4E (Homo sapiens (Human), UniProt P06730)', 14.2),
  ('CSc1cc(C(=O)O)cc(-c2cc(Cl)ccc2OCCn2cnc3cnc(C#N)cc3c2=O)c1', 'recombinant eIF4E (Homo sapiens (Human), UniProt P06730)', 2860),
  ('Cc1nc2c(N3CCN(CCCC(F)(F)F)CC3)ncc(C#N)c2c(=O)n1CCOc1ccc(Cl)cc1-c1ccnc2c(C(=O)O)csc12', 'recombinant eIF4E (Homo sapiens (Human), UniProt P06730)', 13.1);

---

# IC50 annotations
target: recombinant eIF4E (Homo sapiens (Human)); assay: Fluorescence polarization competition assay for eIF4E binding potency; conditions: inhibition of eIF4E/EDA-m7GDP-ATTO-550 binding by 50%; Table 4B calculated values; read-out: IC50
Measured Property: IC50 (nM)

INSERT INTO results (compound, reported_result) VALUES
  ('Cc1cc(-c2cc(Cl)ccc2OCCn2c(C)nc3cc(CCCN(C)C)c(Cl)c(C#N)c3c2=O)c2scc(C(=O)O)c2n1', 4.12),
  ('Cc1nc2cc(C#N)c(Cl)c(C#N)c2c(=O)n1CCOc1ccc(Cl)cc1-c1ccnc2c(C(=O)O)csc12', 28.6),
  ('Cc1cc(-c2cc(Cl)ccc2OCCn2c(C)nc3c(C)ncc(C#N)c3c2=O)c2scc(C(O)C(F)(F)F)c2n1 (stereo not drawn)', 1730),
  ('Cc1cc(-c2cc(Cl)ccc2OCCn2c(C)nc3cc(C(F)(F)F)c(N4CCC(Cl)CC4)c(C#N)c3c2=O)c2scc(C(=O)O)c2n1', 12.1),
  ('Cc1cc2cc(C#N)c(CN(C)C)c(C#N)c2c(=O)n1CCOc1ccc(Cl)cc1-c1ccnc2c(C(=O)O)csc12', 88),
  ('Cc1nc2cc(C(F)(F)F)cc(C#N)c2c(=O)n1CCOc1ccc(Cl)cc1-c1cc(C2CC2)nc2c(C(=O)O)csc12', 106);
